Hey, just so you know, these numbers are from ChEMBL document CHEMBL1126550.

molecular target: Vasopressin V1 receptor (Rattus norvegicus, UniProt P48974+P30560); experiment: Inhibition of radioligand [3H]AVP binding to the vasopressin V1 receptor in rat liver tissue
log10 of IC50: recorded values
Values below are the log10 of the recorded IC50, with µM as the unit.

Worked cases, log10 of IC50 given:
CC1(C)[C@@H]2CC[C@@]1(CS(=O)(=O)N1CCC3(CCc4ccccc43)CC1)[C@@H](N1C(=O)NC(CC(=O)O)C1=O)C2 (some centres undefined)	0.28
CC1(C)[C@@H]2CC[C@@]1(CS(=O)(=O)N1CCC3(CCc4ccccc43)CC1)[C@@H](NC(=O)C(CCS(C)(=O)=O)NC(=O)Cc1c[nH]cn1)C2 (some centres undefined)	-0.36
CC1(C)[C@@H]2CC[C@@]1(CS(=O)(=O)N1CCC3(CCc4ccccc43)CC1)[C@@H](NC(=O)[C@H](CCC(N)=O)NC(=O)Cc1c[nH]cn1)C2	0.36
CC(C)CC1NC(=O)N([C@H]2C[C@H]3CC[C@]2(CS(=O)(=O)N2CCC4(CCc5ccccc54)CC2)C3(C)C)C1=O (some centres undefined)	0.08
CC1(C)[C@@H]2CC[C@@]1(CS(=O)(=O)N1CCC3(CCc4ccccc43)CC1)[C@@H](N1C(=O)CC(CC(=O)Nc3nn[nH]n3)C1=O)C2 (some centres undefined)	-0.11

Query: Form field: reported log10 of IC50 of `CC1(C)[C@@H]2CC[C@@]1(CS(=O)(=O)N1CCC3(C=Cc4ccccc43)CC1)[C@@](O)(CCNC(=O)c1cccnc1)C2`
Response: 0.28

Query: Form field: reported log10 of IC50 of `CC1(C)[C@@H]2CC[C@@]1(CS(=O)(=O)N1CCC3(CCc4ccccc43)CC1)/C(=N\O)C2`
Response: 0.51

###

molecular target: Vasopressin V1 receptor (Rattus norvegicus, UniProt P48974+P30560); assay: Inhibition of radioligand [3H]AVP binding to the vasopressin V1 receptor in rat liver tissue
recorded.endpoint: IC50 (nM)
Write the answer as a number in nM, unit excluded.

Query: Form field: reported IC50 of `CC(C)[C@@H](N)C(=O)N[C@H]1C[C@H]2CC[C@]1(CS(=O)(=O)N1CCC3(CCc4ccccc43)CC1)C2(C)C`
Response: 3000

Query: Form field: reported IC50 of CNC1CCN([C@H]2C[C@H]3CC[C@]2(CS(=O)(=O)N2CCC4(CCc5ccccc54)CC2)C3(C)C)C1=O (some centres not stated)
Response: 4700

Query: Form field: reported IC50 of `CC1(C)[C@@H]2CC[C@@]1(CS(=O)(=O)N1CCC3(C=Cc4ccccc43)CC1)[C@@](O)(CCNC(=O)Cc1ccncc1)C2`
Response: 3000

Query: Form field: reported IC50 of `COC(=O)CCN(C(=O)Cc1cn(C)cn1)[C@H]1C[C@H]2CC[C@]1(CS(=O)(=O)N1CCC3(CCc4ccccc43)CC1)C2(C)C`
Response: 2200

Query: Form field: reported IC50 of `CC1(C)[C@@H]2CC[C@@]1(CS(=O)(=O)N1CCC3(CCc4ccccc43)CC1)[C@@H](NC(=O)[C@H](N)CCC(N)=O)C2`
Response: 2300

Query: Form field: reported IC50 of CCN(CC)C(CCS(C)(=O)=O)C(=O)N[C@H]1C[C@H]2CC[C@]1(CS(=O)(=O)N1CCC3(CCc4ccccc43)CC1)C2(C)C (some centres not stated)
Response: 2100

###

target: UniProtKB Q00788
Sequence (Q00788 whole entry): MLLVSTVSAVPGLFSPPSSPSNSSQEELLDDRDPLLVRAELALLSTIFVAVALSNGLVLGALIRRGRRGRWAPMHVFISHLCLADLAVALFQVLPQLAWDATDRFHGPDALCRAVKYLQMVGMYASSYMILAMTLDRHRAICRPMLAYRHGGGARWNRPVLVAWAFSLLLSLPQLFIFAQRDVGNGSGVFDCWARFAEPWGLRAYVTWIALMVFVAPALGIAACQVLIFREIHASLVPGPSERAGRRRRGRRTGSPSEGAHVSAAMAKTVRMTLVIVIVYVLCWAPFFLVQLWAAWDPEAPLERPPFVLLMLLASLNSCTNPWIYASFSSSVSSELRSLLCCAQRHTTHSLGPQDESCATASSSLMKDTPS
recorded.endpoint: IC50 (µM)
Write the answer as a number in µM, unit excluded.

Worked cases, IC50 given:
CC1(C)[C@@H]2CC[C@@]1(CS(=O)(=O)N1CCC3(CCc4ccccc43)CC1)[C@@H](N1C(=O)NC(Cc3c[nH]cn3)C1=O)C2 (stereo in doubt)	1.4
CC1(C)[C@@H]2CC[C@@]1(CS(=O)(=O)N1CCC3(CCc4ccccc43)CC1)[C@H](NC(=O)Cc1c[nH]cn1)C2	13
CC1(C)[C@@H]2CC[C@@]1(CS(=O)(=O)N1CCC3(CCc4ccccc43)CC1)[C@@H](NC(=O)Cc1[nH]cnc1Br)C2	15
CC1(C)[C@@H]2CC[C@@]1(CS(=O)(=O)N1CCC3(C=Cc4ccccc43)CC1)[C@@](O)(CNC(=O)C1CN3CCC1CC3)C2 (some centres not stated)	6.1
CC(C)C[C@H](N)C(=O)NC[C@@]1(O)C[C@H]2CC[C@]1(CS(=O)(=O)N1CCC3(C=Cc4ccccc43)CC1)C2(C)C	2.2

For the next question, use this molecule.
Query: Fill in the recorded IC50 for this molecule, with UniProtKB Q00788 as test system: `CC1(C)[C@@H]2CC[C@@]1(CS(=O)(=O)N1CCC3(CCc4ccccc43)CC1)[C@@H](N1C(=O)NC(=O)C1=O)C2`
Response: 16

###

molecular target: UniProt:P70536
pIC50: recorded values
// returns pIC50 (minus log10 of molar concentration), number only

Worked cases, pIC50 given:
CC1(C)[C@@H]2CC[C@@]1(CS(=O)(=O)N1CCC3(C=Cc4ccccc43)CC1)[C@@](O)(CCNC(=O)c1ccccn1)C2	6.92
CC1(C)[C@@H]2CC[C@@]1(CS(=O)(=O)N1CCC3(CCc4ccccc43)CC1)[C@@H](N1C(=O)NC(CN)C1=O)C2 (stereo partly specified)	7.46
CC1(C)[C@@H]2CC[C@@]1(CS(=O)(=O)N1CCC3(CCc4ccccc43)CC1)[C@@H](NC(=O)[C@H](CCC(N)=O)NC(=O)CCN)C2	8.20
CCN(CC)C(CCS(C)(=O)=O)C(=O)N[C@H]1C[C@H]2CC[C@]1(CS(=O)(=O)N1CCC3(CCc4ccccc43)CC1)C2(C)C (stereo partly specified)	7.52
CC(C)[C@H](NC(=O)Cc1c[nH]cn1)C(=O)NC[C@@]1(O)C[C@H]2CC[C@]1(CS(=O)(=O)N1CCC3(C=Cc4ccccc43)CC1)C2(C)C	8.08

For the next question, use this compound.
Query: Fill in the recorded pIC50 for this compound, with UniProt:P70536 as test system: CC1(C)[C@@H]2CC[C@@]1(CS(=O)(=O)N1CCC3(CCc4ccccc43)CC1)[C@@H](N1C(=O)NC(CCS(N)(=O)=O)C1=O)C2 (stereo partly specified)
Response: 7.89

###

Parameter IC50, tested on Oxytocin receptor (Rattus norvegicus, UniProt P70536), listed per item.
Sequence (P70536 whole entry): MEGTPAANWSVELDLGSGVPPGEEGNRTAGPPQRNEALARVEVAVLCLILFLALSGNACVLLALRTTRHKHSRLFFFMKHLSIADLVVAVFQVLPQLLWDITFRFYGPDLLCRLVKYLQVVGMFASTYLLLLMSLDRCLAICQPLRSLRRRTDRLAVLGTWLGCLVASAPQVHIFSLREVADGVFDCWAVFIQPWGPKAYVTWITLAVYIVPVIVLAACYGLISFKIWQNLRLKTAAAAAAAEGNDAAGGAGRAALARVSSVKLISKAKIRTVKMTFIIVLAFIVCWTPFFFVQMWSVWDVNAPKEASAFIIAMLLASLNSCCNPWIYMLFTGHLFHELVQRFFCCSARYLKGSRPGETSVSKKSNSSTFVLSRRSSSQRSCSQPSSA
Write the answer as a number in nM, unit excluded.

Worked cases, IC50 given:
CC1(C)[C@@H]2CC[C@@]1(CS(=O)(=O)N1CCC3(CCc4ccccc43)CC1)[C@@H](NC(=O)NC1CN3CCC1CC3)C2 (single isomer, unassigned; isomer A)	47
CC1(C)[C@@H]2CC[C@@]1(CS(=O)(=O)N1CCC3(CCc4ccccc43)CC1)[C@@H](NC(=O)N(CCc1c[nH]cn1)CCS(C)(=O)=O)C2	16

Query: Fill in the recorded IC50 for this compound, with Oxytocin receptor (Rattus norvegicus, UniProt P70536) as test system: `CC1(C)[C@@H]2CC[C@@]1(CS(=O)(=O)N1CCC3(CCc4ccccc43)CC1)[C@@H](NC(=O)c1ccccc1)C2`
Response: 1000

Query: Fill in the recorded IC50 for this compound, with Oxytocin receptor (Rattus norvegicus, UniProt P70536) as test system: `CC1(C)[C@@H]2CC[C@@]1(CS(=O)(=O)N1CCC3(CCc4ccccc43)CC1)[C@@H](NC(=O)Cc1[nH]cnc1Br)C2`
Response: 110

###

molecular target: Vasopressin V1 receptor (Rattus norvegicus, UniProt P48974+P30560); experiment: Inhibition of radioligand [3H]AVP binding to the vasopressin V1 receptor in rat liver tissue
recorded.endpoint: IC50

CC1(C)[C@@H]2CC[C@@]1(CS(=O)(=O)N1CCC3(CCc4ccccc43)CC1)[C@@H](N1CCC(N)C1=O)C2 (stereo partly specified)	1.7 µM
CC1(C)[C@@H]2CC[C@@]1(CS(=O)(=O)N1CCC3(CCc4ccccc43)CC1)[C@@H](NC(=O)CCC(=O)O)C2	> 3 µM
Cn1cncc1CC(=O)N[C@@H](CCC(N)=O)C(=O)N[C@H]1C[C@H]2CC[C@]1(CS(=O)(=O)N1CCC3(CCc4ccccc43)CC1)C2(C)C	> 0.3 µM
CC1(C)[C@@H]2CC[C@@]1(CS(=O)(=O)N1CCC3(CCc4ccccc43)CC1)[C@@H](NC(=O)c1ccccc1)C2	10 µM
CC1(C)[C@H]2CC[C@]1(CS(=O)(=O)N1CCC3(CCc4ccccc43)CC1)[C@@H](NC(=O)Cc1c[nH]cn1)C2	> 3 µM

For the next question, use this compound.
Query: Form field: reported IC50 of `CC1(C)[C@@H]2CC[C@@]1(CS(=O)(=O)N1CCC3(CCc4ccccc43)CC1)[C@@H](NC(=O)C[C@]13C[C@H]4C[C@H](C[C@H](C4)C1)C3)C2`
Response: > 10 µM
